Consider the following compounds; for each one, report its growth inhibition.
- test name: NCI Yeast Anticancer Drug Screen. Data for the mlh1 strain (AID 171);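 note: 0% = growth of vehicle-treated control cultures of the same strain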
- study conditions: S. cerevisiae mlh1 strain growth inhibition; at 33.0 µM; hits give high values
The panel holds about 79,000 compounds, 15% with a hit somewhere; the sample as a whole holds those more often.
Numbers only, in %.

Consider the worked cases shown below.
Cc1cccc2c1N=C(C(F)(F)F)CC2=O :: 8
Cc1cc(N=C2C=CC(=[N+](C)C)C=C2)c(N)cc1N :: 31
COc1ccc(N=N/C(=N\NC(=O)c2cc(Br)ccc2O)c2ccc(N(CCC#N)CCC#N)cc2OC)cc1 :: 46

Query compound follows.
Exercise: Consider the compound shown here: O=C(O)c1[nH]c(=O)c2ccccc2c1Nc1ccccc1 What is its recorded growth inhibition?
Key: 1

* * *

- test name: NCI Yeast Anticancer Drug Screen. Data for the mec2-1 strain (AID 157)
- study conditions: S. cerevisiae mec2-1 strain, at 100.0 µM
The panel holds about 79,000 compounds, 15% with a hit somewhere; the sample as a whole holds those more often. Calls of active or inactive are those of the source. No stated cut-off is given here; in the data, active means growth inhibition above about 70%; inactive means the rest. Residues, ends and D or L forms follow the SMILES beside them. *: point of attachment. CH2Cl = ClC*
# valid calls are active, inactive; nothing else

Solved entries:
COC(=O)c1n[nH]c(C)c1N=NN(C)CCC#N :: active
CC(=O)NC(CC(C)C)C(=O)NC(Cc1ccccc1)C(=O)CCl (stereo not drawn) (Ac-Leu-Phe-CH2Cl; configuration not given here) :: active
CN(N=O)c1ccc(/C=C/c2ccnc3ccccc23)cc1 :: active
C=C(CCCO)[C@@H]1CC[C@@](C)(O)[C@H]1C :: inactive
S=c1nc(Cl)cc2[nH]c(Cl)cn12 :: active

Exercise: Name the outcome recorded for CCOC(=O)C(NC(=O)CC)(N1CCN(c2cc3c(cc2F)c(=O)c(C(=O)O)cn3C2CC2)CC1)C(F)(F)F (configuration not stated) in the assay.
Key: active

Exercise: # outcome recorded in this test, key = C/C(=N\NC(=S)NC1CCCC1)c1ccccn1
Key: active

Exercise: Would you mind telling me which call this test gave O=C(NCCCCCN1CCC2(CCCCC2)CC1)C(C1CCCCC1)C1CCCCC1 ?
Key: active

Exercise: Per the assay record, what outcome was assigned to Clc1cc(Cc2ccc(N=C/C=C/c3ccccc3)c(Cl)c2)ccc1N=C/C=C\c1ccccc1 ?
Key: inactive

Exercise: How was Clc1c(Cl)c(Cl)c2n[nH]nc2c1Cl classified in this test?
Key: active

Exercise: Can you look up the reported call for S=P(N1CC1)(N1CC1)N1CC1 for me?
Key: inactive

Exercise: Called result for CC(=O)O[C@H]1C(=O)[C@@]2(C)[C@H]([C@H](OC(=O)c3ccccc3)[C@]3(O)C[C@H](OC(=O)[C@H](O)[C@@H](NC(=O)c4ccccc4)c4ccccc4)C(C)=C1C3(C)C)[C@]1(OC(C)=O)CO[C@@H]1C[C@@H]2O
Key: inactive

* * *

- test name: NCI Yeast Anticancer Drug Screen. Data for the rad50EPP+ strain (AID 151);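 note: 0% = growth of vehicle-treated control cultures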
- study conditions: S. cerevisiae rad50 mutant strain, at 11.0 µM, hits give high values
The panel holds about 79,000 compounds, 15% with a hit somewhere; the sample as a whole holds those more often.
Note to self: values exactly at 10% are Condition met. So growth inhibition at or above 10% is Condition met, below is Condition not met.

Field: example entries. Status: answers known.
Clc1c(Cl)c(Cl)c2c(nnn2C2CCCO2)c1Cl (stereo not drawn) :: Condition not met
CCCCCCCCN1C(=O)c2ccccc2C1=O :: Condition met
CCOC(=O)C(NC(=O)CC)(N1CCN(c2cc3c(cc2F)c(=O)c(C(=O)O)cn3C2CC2)CC1)C(F)(F)F (stereo not drawn) :: Condition not met
COc1ccc(N=Nc2ccc3oc(=O)c(C(=O)Nc4ccccc4)cc3c2)cc1 :: Condition met
Nc1ccc2c(=S)c3ccccc3[nH]c2c1 :: Condition met
Cc1ccc(I)cc1N=C=S :: Condition met

Now consider the entry below.
Exercise: Decide: is the reported value of growth inhibition for O=Cc1coc2ccccc2c1=O equal to or greater than 10%?
Key: Condition met
